target: H^+ /K^+ -ATPase (Sus scrofa); construct: a microsome fraction prepared from porcine gastric mucosa was used as a standard enzyme; assay: Inhibitory Action on H^+ /K^+ -ATPase Activity; conditions: microsome fraction from porcine gastric mucosa, pH7.4, 37° C., 30 min preincubation, 15 min reaction
Sequence (P19156 2-1034 limits assumed): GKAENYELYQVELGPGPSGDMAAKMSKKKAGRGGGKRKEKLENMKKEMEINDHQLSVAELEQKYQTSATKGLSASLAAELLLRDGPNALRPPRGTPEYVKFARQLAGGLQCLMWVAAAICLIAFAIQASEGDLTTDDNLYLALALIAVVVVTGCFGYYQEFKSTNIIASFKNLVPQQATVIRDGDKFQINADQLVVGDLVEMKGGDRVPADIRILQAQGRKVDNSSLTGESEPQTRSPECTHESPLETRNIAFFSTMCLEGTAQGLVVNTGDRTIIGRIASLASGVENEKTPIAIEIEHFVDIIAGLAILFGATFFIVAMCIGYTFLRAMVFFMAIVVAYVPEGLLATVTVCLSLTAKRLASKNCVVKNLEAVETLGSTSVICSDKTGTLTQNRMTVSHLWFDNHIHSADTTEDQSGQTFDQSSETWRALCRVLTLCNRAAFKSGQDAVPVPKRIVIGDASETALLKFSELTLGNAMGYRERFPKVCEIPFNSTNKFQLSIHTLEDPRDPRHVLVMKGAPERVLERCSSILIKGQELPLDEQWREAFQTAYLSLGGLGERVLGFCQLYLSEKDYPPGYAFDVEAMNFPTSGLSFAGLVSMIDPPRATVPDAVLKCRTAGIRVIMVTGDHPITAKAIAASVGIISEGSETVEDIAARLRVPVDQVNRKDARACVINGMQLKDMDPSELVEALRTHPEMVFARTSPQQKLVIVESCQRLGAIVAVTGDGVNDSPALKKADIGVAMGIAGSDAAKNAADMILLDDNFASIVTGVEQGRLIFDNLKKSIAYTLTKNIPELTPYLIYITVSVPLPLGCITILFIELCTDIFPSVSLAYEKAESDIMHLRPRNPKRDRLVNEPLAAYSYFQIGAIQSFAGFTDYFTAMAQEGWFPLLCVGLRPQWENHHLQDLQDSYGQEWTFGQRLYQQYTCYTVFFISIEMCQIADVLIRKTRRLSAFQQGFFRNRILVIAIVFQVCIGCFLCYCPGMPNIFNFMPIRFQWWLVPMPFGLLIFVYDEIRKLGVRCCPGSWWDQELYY
Sequence (P18434 whole entry partner): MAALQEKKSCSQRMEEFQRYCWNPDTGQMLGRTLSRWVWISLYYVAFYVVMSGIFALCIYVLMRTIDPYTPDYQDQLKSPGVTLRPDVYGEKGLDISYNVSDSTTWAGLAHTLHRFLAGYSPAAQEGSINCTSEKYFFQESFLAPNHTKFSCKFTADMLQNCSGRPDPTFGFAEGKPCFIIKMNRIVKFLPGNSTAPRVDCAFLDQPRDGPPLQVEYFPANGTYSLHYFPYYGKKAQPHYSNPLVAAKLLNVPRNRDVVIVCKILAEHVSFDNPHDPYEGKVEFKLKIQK
ENDPOINT NAME: pIC50
# reply with the number alone; pIC50 is -log10 of concentration in mol/L

Check out these entries, answers already filled in.
[
  {
    "MOLECULE": "CSc1cccc2c1ccn1c(N)c(-c3ccccc3C)nc21 [Compound 46]",
    "TARGET DESC": "H^+ /K^+ -ATPase (Sus scrofa)",
    "pIC50": 5.08
  },
  {
    "MOLECULE": "Cc1ccc(-c2nc3c4ccccc4ccn3c2NCCC(C)C)c(C)c1 [Compound 189]",
    "TARGET DESC": "H^+ /K^+ -ATPase (Sus scrofa)",
    "pIC50": 5.17
  },
  {
    "MOLECULE": "CCNc1c(-c2sccc2C)nc2c3ccccc3c(OC)cn12 [Compound 176]",
    "TARGET DESC": "H^+ /K^+ -ATPase (Sus scrofa)",
    "pIC50": 5.05
  }
]

Asked: Consider the molecule CCCc1cc2ccccc2c2nc(-c3ccccc3C)c(N)n12 [Compound 12] and give its measured pIC50.
Given back: 4.90

Asked: Consider the molecule Cc1ccccc1-c1nc2c3c(Cl)cccc3ccn2c1N [Compound 7] and give its measured pIC50.
Given back: 5.10
